B1: DLC1 (parent)
chain: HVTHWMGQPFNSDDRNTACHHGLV

variants of: B1; experiment: protein stability index of a GFP-peptide fusion (GPS, HEK-293T) (PSI 1-6); higher = more stable; conditions: c terminus: a fixed tail appended;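 note: lentivirally expressed fusions sorted by FACS into six bins by GFP to DsRed ratio, PSI derived from sequencing read proportions per bin multiplied by bin number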
readoutKind: protein stability index
# print the numeric value only

Supply measured protein stability index of V24N in your reply.
2.05

Identify protein stability index associated with the variant M6F
2.02

Please report protein stability index for the following variant: T17R
1.99

Find the measured protein stability index of C19L and report it.
2.02

Indicate its recorded protein stability index; the variant in question is T17G
2.04

Report protein stability index for D14R
2.01

Supply measured protein stability index of V2W in your reply.
1.98

Tell me its protein stability index given C19G as the entry.
1.96

Specify reported protein stability index for the variant shown: H21T
2.02
